System: RT-4
measurement.description: Cytotoxicity against human RT4 cells after 96 hrs
Type: functional
test.parameters: RT-4, 96 h
# GI50 per record follows
State the answer as a number, implicitly in µM.

Below, each entry is followed by its recorded GI50 result.
| smiles.record | readout.unit | GI50 |
| --- | --- | --- |
| CCOC(=O)c1cc2c(cc1Cl)SC(N(c1ccc(F)cc1)S(=O)(=O)c1ccc(OC)cc1)=NS2(=O)=O | µM | 19 |
| COC(=O)c1cc2c(cc1Cl)SC(N(N(C)C)S(=O)(=O)c1ccc(Br)s1)=NS2(=O)=O | µM | 18.5 |
| COC(=O)c1cc2c(cc1Cl)SC(N(N(C)C)S(=O)(=O)c1ccc(Cl)cc1)=NS2(=O)=O | µM | 18.5 |
| Cc1cc2c(cc1Cl)SC(N(c1ccccc1Cl)S(=O)(=O)c1ccc(Br)s1)=NS2(=O)=O | µM | 28.6 |
| CCOC(=O)c1cc2c(cc1Cl)SC(N(c1ccc(OC)cc1)S(=O)(=O)c1ccc(Cl)cc1)=NS2(=O)=O | µM | 23.1 |
| Cc1cc2c(cc1Cl)SC(N(c1ccc(Cl)cc1)S(=O)(=O)c1ccccc1)=NS2(=O)=O | µM | 22 |
| CCOC(=O)c1cc2c(cc1Cl)SC(N(c1ccc(OC)cc1)S(=O)(=O)c1ccc(Cl)cc1Cl)=NS2(=O)=O | µM | 6.3 |

Alright, here's another molecule for you.
Q. I am curious: what GI50 value has been reported for CCOC(=O)c1cc2c(cc1Cl)SC(N(c1ccc(OC)cc1)S(=O)(=O)c1ccccc1)=NS2(=O)=O ?
A. 16.8

* * *

# GI50 per record follows
Test system: A-427
measurement.description: Cytotoxicity against human A427 cells after 96 hrs
Assay type: functional
test.parameters: A-427, 96 h
In your response, the unit should come after the numeric value.

Below, each entry is followed by its recorded GI50 result.
| smiles.record | metric | result |
| --- | --- | --- |
| COC(=O)c1cc2c(cc1Cl)SC(N(N(C)C)S(=O)(=O)c1ccc(Br)s1)=NS2(=O)=O | GI50 | 12 µM |
| Cc1cc2c(cc1Cl)SC(N(c1ccc(Cl)cc1)S(=O)(=O)c1ccccc1)=NS2(=O)=O | GI50 | 9.2 µM |
| Cc1cc2c(cc1Cl)SC(N(c1ccccc1Cl)S(=O)(=O)c1ccc(Br)s1)=NS2(=O)=O | GI50 | 8.2 µM |
| CCOC(=O)c1cc2c(cc1Cl)SC(N(c1ccc(OC)cc1)S(=O)(=O)c1ccc(Cl)cc1)=NS2(=O)=O | GI50 | 11.2 µM |
| O=C(Oc1cccc2cccnc12)c1cc2c(cc1Cl)SC(N(c1ccc(F)cc1)S(=O)(=O)c1ccc(Br)s1)=NS2(=O)=O | GI50 | 3.4 µM |

Q. I am curious: what GI50 value has been reported for CCOC(=O)c1cc2c(cc1Cl)SC(N(c1ccc(OC)cc1)S(=O)(=O)c1ccc(Cl)cc1Cl)=NS2(=O)=O ?
A. 4.1 µM

Q. I am curious: what GI50 value has been reported for CCOC(=O)c1cc2c(cc1Cl)SC(N(c1ccccc1)S(=O)(=O)c1ccc(Cl)cc1)=NS2(=O)=O ?
A. 11.7 µM

Q. I am curious: what GI50 value has been reported for CCOC(=O)c1cc2c(cc1Cl)SC(N(c1ccc(OC)cc1)S(=O)(=O)c1ccccc1)=NS2(=O)=O ?
A. 7 µM

Q. I am curious: what GI50 value has been reported for O=C(Oc1cccc2cccnc12)c1cc2c(cc1Cl)SC(N(c1ccc(F)cc1)S(=O)(=O)c1ccc(Cl)cc1)=NS2(=O)=O ?
A. 3.1 µM

Q. I am curious: what GI50 value has been reported for COC(=O)c1cc2c(cc1Cl)SC(N(N(C)C)S(=O)(=O)c1ccc(Cl)cc1)=NS2(=O)=O ?
A. 10.2 µM

Q. I am curious: what GI50 value has been reported for Cc1cc2c(cc1Cl)SC(N(N(C)C)S(=O)(=O)c1ccc(Cl)cc1)=NS2(=O)=O ?
A. 15.6 µM

Q. I am curious: what GI50 value has been reported for CCOC(=O)c1cc2c(cc1Cl)SC(N(c1ccc(F)cc1)S(=O)(=O)c1ccc(OC)cc1)=NS2(=O)=O ?
A. 8.4 µM

* * *

Tested on: 5637
measurement.description: Cytotoxicity against human 5637 cells after 96 hrs
Format: functional
test.parameters: Homo sapiens, 5637, 96 h
metric: GI50 (µM)
State the answer as a number, implicitly in µM.

Below, each entry is followed by its recorded GI50 result.
| smiles.record | GI50 (µM) |
| --- | --- |
| CCOC(=O)c1cc2c(cc1Cl)SC(N(c1ccc(OC)cc1)S(=O)(=O)c1ccc(Cl)cc1)=NS2(=O)=O | 11.9 |
| Cc1cc2c(cc1Cl)SC(N(c1ccc(Cl)cc1)S(=O)(=O)c1ccccc1)=NS2(=O)=O | 9.6 |
| CCOC(=O)c1cc2c(cc1Cl)SC(N(c1ccc(OC)cc1)S(=O)(=O)c1ccccc1)=NS2(=O)=O | 6.5 |

Alright, here's another compound for you.
Q. I am curious: what GI50 value has been reported for Cc1cc2c(cc1Cl)SC(N(N(C)C)S(=O)(=O)c1ccc(Cl)cc1)=NS2(=O)=O ?
A. 19.2

* * *

Test system: DAN-G
measurement.description: Cytotoxicity against human DANG cells after 96 hrs
Type: functional
# GI50 per record follows
State the answer as a number, implicitly in µM.

| smiles.record | readout.unit | GI50 |
| --- | --- | --- |
| O=C(Oc1cccc2cccnc12)c1cc2c(cc1Cl)SC(N(c1ccc(F)cc1)S(=O)(=O)c1ccc(Cl)cc1)=NS2(=O)=O | µM | 9.3 |
| CCOC(=O)c1cc2c(cc1Cl)SC(N(c1ccc(OC)cc1)S(=O)(=O)c1ccc(Cl)cc1)=NS2(=O)=O | µM | 12.3 |
| CCOC(=O)c1cc2c(cc1Cl)SC(N(c1ccc(F)cc1)S(=O)(=O)c1ccc(OC)cc1)=NS2(=O)=O | µM | 12 |
| COC(=O)c1cc2c(cc1Cl)SC(N(N(C)C)S(=O)(=O)c1ccc(Cl)cc1)=NS2(=O)=O | µM | 18.7 |
| CCOC(=O)c1cc2c(cc1Cl)SC(N(c1ccc(OC)cc1)S(=O)(=O)c1ccccc1)=NS2(=O)=O | µM | 7.6 |

Q. I am curious: what GI50 value has been reported for COC(=O)c1cc2c(cc1Cl)SC(N(N(C)C)S(=O)(=O)c1ccc(Br)s1)=NS2(=O)=O ?
A. 23.7

Q. I am curious: what GI50 value has been reported for CCOC(=O)c1cc2c(cc1Cl)SC(N(c1ccccc1)S(=O)(=O)c1ccc(Cl)cc1)=NS2(=O)=O ?
A. 14.8

Q. I am curious: what GI50 value has been reported for Cc1cc2c(cc1Cl)SC(N(N(C)C)S(=O)(=O)c1ccc(Cl)cc1)=NS2(=O)=O ?
A. 23.5

Q. I am curious: what GI50 value has been reported for CCOC(=O)c1cc2c(cc1Cl)SC(N(c1ccc(OC)cc1)S(=O)(=O)c1ccc(Cl)cc1Cl)=NS2(=O)=O ?
A. 3.1

Q. I am curious: what GI50 value has been reported for Cc1cc2c(cc1Cl)SC(N(c1ccc(Cl)cc1)S(=O)(=O)c1ccccc1)=NS2(=O)=O ?
A. 9.9

Q. I am curious: what GI50 value has been reported for O=C(Oc1cccc2cccnc12)c1cc2c(cc1Cl)SC(N(c1ccc(F)cc1)S(=O)(=O)c1ccc(Br)s1)=NS2(=O)=O ?
A. 8.2

Q. I am curious: what GI50 value has been reported for Cc1cc2c(cc1Cl)SC(N(c1ccccc1Cl)S(=O)(=O)c1ccc(Br)s1)=NS2(=O)=O ?
A. 9.4

* * *

System: 5637
measurement.description: Cytotoxicity against human 5637 cells after 96 hrs
Type: functional
test.parameters: Homo sapiens, 5637, 96 h
metric: GI50 (µM)
State the answer as a number, implicitly in µM.

Below, each entry is followed by its recorded GI50 result.
| smiles.record | metric | readout.unit | result.number |
| --- | --- | --- | --- |
| O=C(Oc1cccc2cccnc12)c1cc2c(cc1Cl)SC(N(c1ccc(F)cc1)S(=O)(=O)c1ccc(Cl)cc1)=NS2(=O)=O | GI50 | µM | 6.2 |
| COC(=O)c1cc2c(cc1Cl)SC(N(N(C)C)S(=O)(=O)c1ccc(Cl)cc1)=NS2(=O)=O | GI50 | µM | 12.6 |
| COC(=O)c1cc2c(cc1Cl)SC(N(N(C)C)S(=O)(=O)c1ccc(Br)s1)=NS2(=O)=O | GI50 | µM | 13.7 |

Q. What is its GI50 for 5637? Entry: CCOC(=O)c1cc2c(cc1Cl)SC(N(c1ccc(OC)cc1)S(=O)(=O)c1ccc(Cl)cc1Cl)=NS2(=O)=O
A. 2.3

Q. What is its GI50 for 5637? Entry: O=C(Oc1cccc2cccnc12)c1cc2c(cc1Cl)SC(N(c1ccc(F)cc1)S(=O)(=O)c1ccc(Br)s1)=NS2(=O)=O
A. 5.1

Q. What is its GI50 for 5637? Entry: CCOC(=O)c1cc2c(cc1Cl)SC(N(c1ccccc1)S(=O)(=O)c1ccc(Cl)cc1)=NS2(=O)=O
A. 14.3

Q. What is its GI50 for 5637? Entry: CCOC(=O)c1cc2c(cc1Cl)SC(N(c1ccc(F)cc1)S(=O)(=O)c1ccc(OC)cc1)=NS2(=O)=O
A. 12.1

Q. What is its GI50 for 5637? Entry: Cc1cc2c(cc1Cl)SC(N(c1ccccc1Cl)S(=O)(=O)c1ccc(Br)s1)=NS2(=O)=O
A. 7.5

Cited source: ChEMBL document CHEMBL1147200
